Data provenance: ChEMBL document CHEMBL3880382

system.tested: Thyrotropin releasing hormone degrading enzyme (Sus scrofa)
procedure.details: Inhibition of pig brain TRH-DE at 1 mM using Glp-His-ProAMC as substrate by DPP-4-based continuous fluorometric method
Non-standard residues stand in square brackets, D forms with d. Residues, ends and D or L forms follow the SMILES beside them. pGlu = O=C1CC[C@@H](C(=O)O)N1; Pip = O=C(O)[C@@H]1CCCCN1
measured.quantity: inhibition (%)

>>> print(df.to_string())
                                   compound  numeric_value
0  NC(=O)C[C@H](NC(=O)[C@@H]1CCC(=O)N1)C(=O)N1CCC[C@H]1C(N)=O ([pGlu]-Asn-Pro-NH2)             97

(I) NC(=O)C[C@@H](NC(=O)[C@@H]1CCC(=O)N1)C(=O)N1CCC[C@H]1C(N)=O ([pGlu]-[dN]-Pro-NH2)
(II) NC(=O)[C@@H]1CCCN1C(=O)[C@@H]1CCCCN1C(=O)[C@@H]1CCC(=O)N1 ([pGlu]-[Pip]-Pro-NH2)
Lab log: flag the item ( I or II ) with the smaller inhibition figure. # reply format: chosen label
I

* * *

system.tested: Thyrotropin-releasing hormone receptor (Rattus norvegicus, UniProt Q01717)
Sequence (Q01717 whole entry): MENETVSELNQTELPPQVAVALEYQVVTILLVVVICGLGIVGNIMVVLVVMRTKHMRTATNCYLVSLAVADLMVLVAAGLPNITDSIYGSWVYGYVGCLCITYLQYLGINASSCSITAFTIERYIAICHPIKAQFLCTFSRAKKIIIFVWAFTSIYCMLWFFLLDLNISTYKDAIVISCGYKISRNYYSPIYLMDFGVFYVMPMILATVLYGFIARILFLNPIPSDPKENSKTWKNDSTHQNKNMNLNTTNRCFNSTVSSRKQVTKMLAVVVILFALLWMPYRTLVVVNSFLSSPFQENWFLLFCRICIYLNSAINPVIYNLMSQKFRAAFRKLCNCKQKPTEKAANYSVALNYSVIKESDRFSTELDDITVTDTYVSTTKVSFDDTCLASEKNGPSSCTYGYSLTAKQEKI
Non-standard residues stand in square brackets, D forms with d. Residues, ends and D or L forms follow the SMILES beside them. *: point of attachment. AMC = Cc1cc(=O)oc2cc(N*)ccc12; pGlu = O=C1CC[C@@H](C(=O)O)N1
measured.quantity: Ki (µM)

(a) NC(=O)C[C@H](NC(=O)[C@@H]1CCC(=O)N1)C(=O)N1CCC[C@H]1C(N)=O ([pGlu]-Asn-Pro-NH2)
(b) O=C(O)C(Cc1ccccc1)N[C@@H](Cc1cn(Cc2ccccc2)cn1)C(=O)Nc1ccc2ccccc2c1 (stereo partly drawn)
(c) Cc1cc(=O)oc2cc(NC(=O)[C@@H]3CCCN3C(=O)[C@H](CC(N)=O)NC(=O)[C@@H]3CCC(=O)N3)ccc12 ([pGlu]-Asn-Pro-{AMC})
Order each entry by recorded Ki, climbing from the minimum. API: response body holds the labels in the requested order.
b, a, c

* * *

system.tested: Thyrotropin-releasing hormone-degrading ectoenzyme (Homo sapiens, UniProt Q9UKU6)
Sequence (Q9UKU6 whole entry): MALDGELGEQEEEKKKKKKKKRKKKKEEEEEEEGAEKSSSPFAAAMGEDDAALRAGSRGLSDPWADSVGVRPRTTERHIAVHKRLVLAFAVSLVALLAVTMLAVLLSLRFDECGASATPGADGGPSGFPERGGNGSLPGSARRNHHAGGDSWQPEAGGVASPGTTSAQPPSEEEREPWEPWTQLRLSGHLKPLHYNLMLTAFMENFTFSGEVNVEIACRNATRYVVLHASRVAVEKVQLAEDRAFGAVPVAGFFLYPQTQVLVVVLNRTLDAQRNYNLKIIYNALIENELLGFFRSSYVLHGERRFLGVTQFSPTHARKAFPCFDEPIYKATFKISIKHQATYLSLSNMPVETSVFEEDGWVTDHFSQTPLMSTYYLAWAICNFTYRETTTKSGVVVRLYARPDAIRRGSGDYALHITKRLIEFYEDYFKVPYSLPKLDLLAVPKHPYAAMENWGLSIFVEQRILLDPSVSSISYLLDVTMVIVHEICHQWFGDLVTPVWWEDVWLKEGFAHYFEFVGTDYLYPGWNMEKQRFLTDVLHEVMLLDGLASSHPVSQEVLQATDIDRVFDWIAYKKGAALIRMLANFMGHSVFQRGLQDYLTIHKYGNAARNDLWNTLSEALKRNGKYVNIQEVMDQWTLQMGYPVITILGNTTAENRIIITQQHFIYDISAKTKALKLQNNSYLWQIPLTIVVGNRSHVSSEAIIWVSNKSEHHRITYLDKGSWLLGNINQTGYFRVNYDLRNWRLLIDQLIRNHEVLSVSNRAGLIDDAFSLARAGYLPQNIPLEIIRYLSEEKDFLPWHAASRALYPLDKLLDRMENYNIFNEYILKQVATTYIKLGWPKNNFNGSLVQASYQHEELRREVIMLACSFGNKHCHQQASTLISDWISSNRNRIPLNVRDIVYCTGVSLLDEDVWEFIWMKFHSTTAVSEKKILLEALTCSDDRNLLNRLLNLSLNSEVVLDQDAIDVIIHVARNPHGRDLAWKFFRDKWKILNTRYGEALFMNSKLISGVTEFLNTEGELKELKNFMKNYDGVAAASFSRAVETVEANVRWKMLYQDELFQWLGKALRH
procedure.details: Competitive inhibition of TRH-DE (unknown origin)
measured.quantity: Ki (µM)
Give just the numeric value; µM need not be written.

Give reported Ki for O=C(O)C(Cc1ccccc1)N[C@@H](Cc1cn(Cc2ccccc2)cn1)C(=O)Nc1ccc2ccccc2c1 (stereo partly specified) (Thyrotropin-releasing hormone-degrading ectoenzyme (Homo sapiens, UniProt Q9UKU6))
8
